Measured values drawn from ChEMBL document CHEMBL1136286 for this set.

- Target Entity: Prothrombin (Homo sapiens, UniProt P00734)
pKi: −log10 of the molar value.
Measure: pKi

Look over these answered cases.
Fill in the recorded pKi for this molecule, with Prothrombin (Homo sapiens, UniProt P00734) as test system: `Cc1ccc(NS(=O)(=O)Cc2ccccc2)c(=O)n1CC(=O)NCc1ccccc1CN`
8.28

Fill in the recorded pKi for this molecule, with Prothrombin (Homo sapiens, UniProt P00734) as test system: `NCCc1ccc(Cl)cc1CNC(=O)[C@@H]1CCCN1C(=O)[C@H](N)Cc1ccccc1`
7.21

P = Cc1ccc(NS(=O)(=O)Cc2ccccc2)c(=O)n1CC(=O)NCc1cc(Cl)ccc1CCN
Q = Cc1ccc(NS(=O)(=O)Cc2ccccc2)c(=O)n1CC(=O)NCc1ccccc1N
Smaller pKi value, P vs Q ? # answer = label of selected item
Q
(Q: 6.33, P: 10.30)

P = Cc1ccc(NS(=O)(=O)Cc2ccccc2)c(=O)n1CC(=O)NCc1ccc(CN)cc1
Q = Cc1ccc(NS(=O)(=O)Cc2ccccc2)c(=O)n1CC(=O)NCc1cccc(CN)c1
Smaller pKi value, P vs Q ? # answer = label of selected item
Q
(Q: 6.31, P: 7.31)

I = NCc1ccccc1CNC(=O)[C@@H]1CCCN1C(=O)[C@H](N)Cc1ccccc1
II = Cc1ccc(NS(=O)(=O)Cc2ccccc2)c(=O)n1CC(=O)NCc1ccccc1CCN
Smaller pKi value, I vs II ? # answer = label of selected item
I
(I: 6.50, II: 8.39)
